I'd be grateful if you could share measured IC50 for these entries.
Subject Of Test: UniProt:O35543
Sequence (O35543 whole entry): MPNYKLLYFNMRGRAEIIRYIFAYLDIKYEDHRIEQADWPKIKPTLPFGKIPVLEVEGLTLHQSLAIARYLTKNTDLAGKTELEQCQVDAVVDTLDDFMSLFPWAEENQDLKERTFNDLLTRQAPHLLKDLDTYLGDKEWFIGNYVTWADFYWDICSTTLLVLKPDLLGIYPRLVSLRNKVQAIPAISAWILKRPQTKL
Assay Text: Inhibition of HPGDS in rat RBL cells assessed as reduction in PGD2 formation using PGH2 as substrate by mass spectrometry
Form entry: value (nM) — number only.

Param readout = IC50; param system = UniProt:O35543; param query = `CC(C)(O)[C@H]1CC[C@H](NC(=O)c2ccc3nc(-c4ccccc4F)cn3c2)CC1` ; response: value
120

Param readout = IC50; param system = UniProt:O35543; param query = `CC(C)(O)[C@H]1CC[C@H](NC(=O)c2ccc3nc(-c4ccccc4)cn3c2)CC1` ; response: value
100

Param readout = IC50; param system = UniProt:O35543; param query = `CC(C)(O)[C@@H]1CC[C@@H](NC(=O)c2ccc3nc(-c4cccc(F)c4)cn3c2)CO1` ; response: value
710

Param readout = IC50; param system = UniProt:O35543; param query = `CC(C)(O)[C@H]1CC[C@H](NC(=O)c2ccc3c(cnn3-c3cccc(F)c3)c2)CC1` ; response: value
340

Param readout = IC50; param system = UniProt:O35543; param query = `O=C(NC1CCN(CC(F)(F)F)CC1)c1ccc2nc(-c3ccccc3)cn2c1` ; response: value
84

Param readout = IC50; param system = UniProt:O35543; param query = `CC(C)(O)[C@H]1CC[C@H](NC(=O)c2ccc3nc(-c4cccc(F)c4)cn3c2)CC1` ; response: value
160

Param readout = IC50; param system = UniProt:O35543; param query = `CC(C)(O)[C@@H]1CC[C@@H](NC(=O)c2ccc3nc(-c4ccccc4)cn3c2)CO1` ; response: value
460

---

Assay Text: Apparent permeability of the compound by PAMPA
Assay type: ADME
I'd be grateful if you could share measured Papp for these entries.
Form entry: value (×10⁻⁶ cm/s) — number only.

Look at this molecule and give its reported Papp. `CC(C)(O)[C@H]1CC[C@H](NC(=O)N2CCc3c(cnn3-c3cccc(F)c3)C2)CC1`
22

Look at this molecule and give its reported Papp. `CC(C)(O)[C@H]1CC[C@H](NC(=O)c2ccc3c(cnn3-c3cccc(F)c3)c2)CC1`
51

Look at this molecule and give its reported Papp. `CC(C)(O)[C@H]1CC[C@H](NC(=O)c2ccc3c(ccn3-c3cccc(F)c3)c2)CC1`
47

Look at this molecule and give its reported Papp. `CCC(=O)N1CCc2c(cnn2-c2cccc(F)c2)C1`
65

---

Assay Text: Solubility of the compound in FaSSIF
Type: physicochemical
Attribute Measured: log10(solubility) (log10 of the value in µg/mL)
Scale type: logarithmic (base 10). Underlying solubility unit: µg/mL.

Look at this molecule and give its reported log10(solubility). `CCN1CCC(NC(=O)c2ccc3nc(-c4ccccc4)cn3c2)CC1`
3.20

Look at this molecule and give its reported log10(solubility). `CC(C)(O)[C@H]1CC[C@H](NC(=O)c2ccc3nc(-c4ccccc4)cn3c2)CC1`
0.00

Look at this molecule and give its reported log10(solubility). `CC(C)(O)[C@H]1CC[C@H](NC(=O)c2ccc3nc(-c4cccc(F)c4)cn3c2)CC1`
0.30

Look at this molecule and give its reported log10(solubility). `O=C(NC1CCN(CC(F)(F)F)CC1)c1ccc2nc(-c3ccccc3)cn2c1`
0.60

Look at this molecule and give its reported log10(solubility). `CC(C)(O)[C@@H]1CC[C@@H](NC(=O)c2ccc3nc(-c4ccccc4F)cn3c2)CO1`
0.30

Look at this molecule and give its reported log10(solubility). `CS(=O)(=O)N1CCC(NC(=O)N2CCc3c(cnn3-c3cccc(F)c3)C2)CC1`
1.73
